Task for the reader: assign each of the following molecules its reported CC50 at 5 day.
Experiment: in vitro
Details: dog

# input Bench note: what CC50 at 5 day did Nc1nc2c(ncn2[C@@H]2O[C@H](CO)[C@@H](O)[C@H]2F)c(=O)[nH]1 show?
# output > 200 µM

# input GET /values?readout=CC50 at 5 day&item= NC(=O)c1nccn([C@@H]2O[C@H](CO)[C@@H](O)[C@H]2O)c1=O
# output > 100 µM

# input Would you mind telling me what CC50 at 5 day value was observed for N#C[C@]1(CO)O[C@@H](n2cnc3c(=O)[nH]c(N)nc32)[C@H](F)[C@@H]1O ?
# output > 200 µM

# input Any idea what CC50 at 5 day was measured for C=C[C@]1(CO)O[C@@H](n2cnc3c(=O)[nH]c(N)nc32)[C@H](F)[C@@H]1O ?
# output > 200 µM
